Cited source for all entries: PubChem BioAssay (NCI)

Test system: 786-0 renal
testProtocol: NCI-60 one-dose screen, 48 h (100 = growth as untreated, 0 = no growth, -100 = all killed)
runConditions: 10 µM unless noted
This is part of a sample that, as a whole, favours compounds with a hit. Of some 83,000 tested, about 20% had one in any assay.
experimentalReadout: growth (%)
Value expressed in %; do not type the unit.

Query: // lookup growth for Cc1cc(Nc2ncnc3ccc(NC4=NC(C)(C)CO4)cc23)ccc1Oc1ccn2ncnc2c1
Response: 29.7

Query: Subsequent entry: COc1cnc2c(c1)C(=O)c1c-2n(CCCn2ccnc2)c(=O)c2cc(Cl)ccc12
Response: -17.9

Query: Proceed to Cc1cc(N2CCCC2)nc(N(CCCNc2ccnc3cc(Cl)ccc23)Cc2ccc3c(c2)OCO3)n1
Response: -88.8

Query: And then COc1c(OCCCN2CCOCC2)ccc2c3n(c(=NC(=O)c4cnc(N)nc4)nc12)CCN3 , what is it?
Response: -4.92

Query: Cool, now O=C1/C(=C\c2cccc(OCCCCCOc3ccc(Cl)cc3)c2)N=C2SCCCN12
Response: 72.6

Query: Try this molecule next: CC(N)C(Cc1ccccc1)c1ccc(Cl)cc1 (stereo not drawn)
Response: 81

Query: Quick one: Fc1ccc(NCc2cn(-c3ccccc3)nc2-c2ccc(OCc3ccccc3)cc2)cc1Cl
Response: 88.7

Query: Can you check COc1cc2c(cc1OCCCCN1CCN(CC(=O)Nc3ccc(Cl)cc3C(=O)c3ccccc3Cl)CC1)N=CC1CCCN1C2=O (stereo not drawn) next?
Response: -94.2

Query: Entry to check: Cc1ccsc1C(NC(=O)c1ccccc1)c1cc(Cl)c2cccnc2c1O (stereo not drawn)
Response: 18.2

Query: Same question, C=C1C(=O)O[C@H]2[C@H]1CC/C(CNC(=O)c1cc3cc(OC)ccc3[nH]1)=C\CC[C@@]1(C)O[C@@H]21 this time
Response: -67.2

Query: Try this molecule too: C=CC(=O)N1CCC(Oc2cc3c(Nc4ccc(Cl)c(Cl)c4F)ncnc3cc2OC)CC1
Response: 23.2

Query: Okay, and CN1CCC(CNc2ccc3ncc(-c4cccc(OC(F)(F)F)c4)n3n2)CC1 ?
Response: -81.6

Query: Also, COc1cc2nccc(Oc3ccc(NC(=O)C4(C(=O)Nc5ccc(F)cc5)CC4)cc3)c2cc1OC please.
Response: 13.1

Query: Queued: O=C1OCC2=C1C(c1cccc(F)c1)c1cc3c(cc1N2CCO)OCCO3 (stereo not drawn)
Response: 26.4

Query: Similarly, O=C(c1c(F)ccc(NS(=O)(=O)N2CC[C@@H](F)C2)c1F)c1c[nH]c2ncc(-c3cnc(C4CC4)nc3)cc12 ?
Response: 39.8

Query: Then what about the molecule Cc1cc(NCC(=O)Nc2ccc(-c3nc4ccccc4s3)cc2)no1 ?
Response: 102

Query: Proceed to CC(C)OP(=O)(CCC(=O)c1c[nH]c2ccccc12)OC(C)C
Response: 109

Query: Now try Ic1ccccc1-c1ccccc1 .
Response: 108

Query: Next record, please: CC1(/C=N/NC(N)=S)NC(=O)NC1=O (stereo not drawn)
Response: 105

Query: Same read-out for CC(=O)Nc1cccc(-n2c(=O)n(C3CC3)c(=O)c3c(Nc4ccc(I)cc4F)n(C)c(=O)c(C)c32)c1 ?
Response: 56.2

Query: Also O=C(Cn1ccnc1)Nc1ccc(-c2nc3ccccc3s2)cc1 ?
Response: 78

Query: Another molecule to look at: CCc1ccc(C2=C(O)C(=O)C(c3ccc(CC)cc3)=C(O)C2=O)cc1
Response: 0.0366

Query: Also CC(=Nc1ccccc1)C1=C(O)C(Cc2ccccc2)NC1=O (stereo not drawn) ?
Response: 8.26

Query: Next up: COC(=O)[C@H](Cc1ccccc1)NC(=O)[C@@H](OC)[C@@H]1Cc2cc3cc(OC4CC(OC5CC(O)C(O)C(C)O5)C(O)C(C)O4)c(C)c(O)c3c(O)c2C(=O)[C@H]1OC1CC(OC2CC(OC3CC(C)(O)C(O)C(C)O3)C(O)C(C)O2)C(O)C(C)O1 (stereo partly drawn)
Response: 0.647

Query: Now consider CC(=O)OC1Oc2ccccc2-c2oc(=O)c(-c3cc4ccc(N(C)C)cc4oc3=O)cc21 (stereo not drawn) .
Response: 55.2

Query: Another molecule: CCN(CC)CCNC(=O)c1c(C)[nH]c(/C=C2\C(=O)Nc3ccc(F)cc32)c1C
Response: -63.8

Query: Next record, please: COc1cc2c(Nc3ccc(Br)cc3F)ncnc2cc1OCC1CCN(C)CC1
Response: 15.3

Query: Try this molecule next: COc1cc(N2CCC(N(C)C)CC2)ccc1Nc1ncc(Cl)c(Nc2ccccc2P(C)(C)=O)n1
Response: -20.6

Query: Next up: Cn1cnc2c(F)c(Nc3ccc(Br)cc3Cl)c(C(=O)NOCCO)cc21
Response: 71.1

Query: Try this molecule next: NC1(c2ccc(-c3nc4ccn5c(=O)[nH]nc5c4cc3-c3ccccc3)cc2)CCC1
Response: 9.74

Query: Next molecule: CC(C)[C@@H](C)/C=C/[C@@H](C)[C@H]1CCC2=C3C=CC4=CC(=O)CC[C@]4(C)[C@H]3CC[C@@]21C
Response: 101

Query: Subsequent entry: COc1cc2c(cc1OCCCN1Cc3ccc(OCCCCC(=O)N4CCC(CCN5CCCC5)CC4)cc3C1)N=C(N)C21CCCC1
Response: 85.4

Query: One more molecule: Clc1ccc2c(NCCCNCc3ccc4c(c3)OCO4)ccnc2c1
Response: 66.8

Query: What would you report for O=C1C=CC2(NN=C(c3ccccc3)N2c2cccc(Cl)c2)C(Cl)=C1 (stereo not drawn) ?
Response: 98

Query: For Cc1ccc(NC(=O)NC(=O)CSc2nc3ccccc3nc2C)cc1 then?
Response: -16.3

Query: Would you mind doing Cc1ccc(F)c(NC(=O)Nc2ccc(-c3cccc4[nH]nc(N)c34)cc2)c1 as well?
Response: 36.4

Query: CN1CC[C@H](c2c(O)cc(O)c3c(=O)cc(-c4ccccc4Cl)oc23)[C@H](O)C1 , same question.
Response: 7.41

Query: Repeat for the following molecule: COc1cc(N2CCC(N3CCN(C)CC3)CC2)ccc1Nc1ncnc(Nc2ccccc2S(=O)(=O)C(C)C)n1
Response: 99.7
